- Test system: NCI/ADR-RES
- ASSAY SUMMARY: NCI tumour cell line growth inhibition, 48 h
Activity calls are given as the source filed them. No stated cut-off is given here; in the data, active = GI50 up to about 1.1 µM and inactive = higher. Peptide text beside a SMILES is read from it. * marks the point of attachment. Cbz = O=C(OCc1ccccc1)*
Labels: active, inactive

{"columns": ["COMPOUND", "EXPERIMENTAL TARGET", "CLASS NAME"],
 "data": [
  ["CCOC(=O)C(C)NC(=O)C(C)NC(=O)C(C)NC(=O)C(C)NC(=O)C(C)NC(=O)C(C)NC(=O)C(C)NC(=O)OCc1ccccc1 (centres undefined) (Cbz-AAAAAAA-OEt; configuration not given here)", "NCI/ADR-RES", "inactive"],
  ["C#C[C@]1(O)[C@@H](CO)O[C@@H](n2ccc(N)nc2=O)[C@@H]1O", "NCI/ADR-RES", "active"],
  ["CC(=O)Nc1nnc(S(=O)(=O)NC(=S)Nc2ccc(Cl)cc2)s1", "NCI/ADR-RES", "inactive"],
  ["CN1C(=O)N/C(=C\\c2ccc(S(=O)(=O)NN)cc2)C1=O", "NCI/ADR-RES", "inactive"],
  ["CC(C)(/N=N/C(C)(C)C1=NCCN1)C1=NCCN1", "NCI/ADR-RES", "inactive"],
  ["CCCC(=O)NC(Nc1ccc(F)cc1)(C(F)(F)F)C(F)(F)F", "NCI/ADR-RES", "inactive"],
  ["O=c1oc2cccnc2n1CCN1CCN(c2ccc(Oc3ccccc3)cc2)CC1", "NCI/ADR-RES", "inactive"],
  ["OCC1c2ccccc2-n2nc(-c3ccccc3)c(O)c21 (centres undefined)", "NCI/ADR-RES", "inactive"],
  ["COc1ccc(CNc2nc(NCc3ccc(OC)cc3)nc(NC(C)C)n2)cc1", "NCI/ADR-RES", "inactive"]
]}

* * *

- Test system: ACHN
- ASSAY SUMMARY: NCI tumour cell line growth inhibition, 48 h
Calls of active or inactive are those of the source. No stated cut-off is given here; in the data, active = GI50 up to about 1.1 µM and inactive = higher.
Classes used: y for active, n for inactive

{"columns": ["MOLECULE", "EXPERIMENTAL TARGET", "CLASS NAME"],
 "data": [
  ["CSc1cnc2ccccc2c1Sc1c[nH]c2ccccc2c1=O", "ACHN", "n"],
  ["COC1(OC)CCN(Cc2ccccc2)C1=O", "ACHN", "n"],
  ["Oc1nc2c(c(-c3ccccc3Cl)n1)COC/C2=C\\c1ccccc1Cl", "ACHN", "n"],
  ["C#CC(=O)OCC#CCOC(=O)C#C", "ACHN", "n"],
  ["COc1ccc(NC(=O)CC(=O)n2nc(-c3ccccc3)c(/N=N/c3ccccc3C(=O)O)c2-c2ccccc2)cc1", "ACHN", "n"],
  ["O=C1Sc2ccc(Br)cc2C(=O)Sc2ccccc21", "ACHN", "n"],
  ["O=C1c2ccccc2C(=O)N1CCc1ncc[nH]1", "ACHN", "n"],
  ["CCCCCCCCCCCCCCCCNc1nc(=O)n(C2CC(O)C(CO)O2)cc1F (stereo unspecified)", "ACHN", "y"],
  ["C/C=C(/C)C(=O)O[C@@H]1CCN2CC[C@H](COC(=O)/C(=C/C)CO)C12 (stereo partly specified)", "ACHN", "n"],
  ["COC(=O)c1cc(OCc2cc(OCc3ccc(Br)cc3)cc(OCc3ccc(Br)cc3)c2)cc(OCc2cc(OCc3ccc(Br)cc3)cc(OCc3ccc(Br)cc3)c2)c1", "ACHN", "n"],
  ["CN(C)c1ccc(C(Cc2ccccc2)C2NC(=S)NC2=O)cc1 (stereo unspecified)", "ACHN", "n"]
]}

* * *

- Tested on: SW-620
- ASSAY SUMMARY: NCI tumour cell line growth inhibition, 48 h
Calls of active or inactive are those of the source. Cut-off read from the data, not from the text of the source: active = GI50 up to about 1.1 µM and inactive = higher. Peptide text beside a SMILES is read from it. * marks the point of attachment. Cbz = O=C(OCc1ccccc1)*
Consider the following molecules and their measured GI50 readings.

{"columns": ["MOLECULE", "GI50"],
 "data": [
  ["COc1cc2c(cc1OC)C(=O)/C(=C/c1ccccc1)CC2", "40.4 µM (inactive)"],
  ["N#Cc1c(NN)nc(NN)c(C#N)c1-c1ccccc1", "> 100 µM (inactive)"],
  ["NC(=O)NOCC1NC(=O)NC1=O (stereo unspecified)", "> 100 µM (inactive)"],
  ["Cc1ccc2c(c1)C1(C)OC(CC(N)C1O)O2 (stereo unspecified)", "> 100 µM (inactive)"],
  ["CCOC(=O)C(C)NC(=O)C(C)NC(=O)C(C)NC(=O)C(C)NC(=O)C(C)NC(=O)C(C)NC(=O)C(C)NC(=O)OCc1ccccc1 (stereo unspecified) (Cbz-AAAAAAA-OEt; configuration not given here)", "> 100 µM (inactive)"],
  ["O=C1c2ccccc2C(=O)N1CCc1ncc[nH]1", "> 100 µM (inactive)"],
  ["Cc1ccc(/C=C2\\CN(C)CC3C2=NN(c2ccccc2)C3c2ccc(C)cc2)cc1 (stereo unspecified)", "> 100 µM (inactive)"],
  ["COc1ccc(C[C@H](N)C(=O)N2C[C@@H](CO)C[C@@H](n3cnc4c(N(C)C)ncnc43)C2)cc1", "> 100 µM (inactive)"],
  ["Cc1ccc(-n2cc(-c3ccc(Cl)cc3)c3c(NNC(=S)NCc4ccccc4)ncnc32)cc1", "4.69 µM (inactive)"],
  ["COC(=O)c1cc2c(cc1Cl)Sc1nnc(Nc3ccccc3)n1S2(=O)=O", "3.39 µM (inactive)"],
  ["Cc1cccc(C(C)(C)C)c1NC(=O)CC1Sc2ccccc2NC1=O (stereo unspecified)", "17.3 µM (inactive)"],
  ["C=C1c2nc3ccccc3n2C=C(c2ccc(Cl)cc2)N1c1ccc(OCCN2CCOCC2)cc1", "22 µM (inactive)"],
  ["O=C(O)CCC(N/C=C1/N=C(c2ccccc2)OC1=O)C(=O)O (stereo unspecified)", "> 100 µM (inactive)"],
  ["CCSCN(C)c1nc(N(C)C)nc(N(C)C)n1", "35.9 µM (inactive)"],
  ["Cc1ccnc(NS(=O)(=O)c2ccc(N=[N+]=[N-])cc2)n1", "> 100 µM (inactive)"],
  ["CC(=O)O[C@H]1CCC2[C@@H]3CCC4Nc5oncc5C[C@]4(C)C3CC[C@@]21C (stereo partly specified)", "> 10 µM (inactive)"],
  ["CSC1=C(SC)C(=O)c2cn(C)c(=O)cc2C1=O", "1.74 µM (inactive)"],
  ["S=C=Nc1ccc(CSc2nc3ccccc3[nH]2)cc1", "17.3 µM (inactive)"],
  ["CC(C)(/N=N/C(C)(C)C1=NCCN1)C1=NCCN1", "> 100 µM (inactive)"],
  ["O=c1oc2cccnc2n1CCN1CCN(c2ccc(Oc3ccccc3)cc2)CC1", "> 100 µM (inactive)"],
  ["Oc1nc2c(c(-c3ccccc3Cl)n1)COC/C2=C\\c1ccccc1Cl", "> 100 µM (inactive)"]
]}

* * *

- System: SF-295
- ASSAY SUMMARY: NCI tumour cell line growth inhibition, 48 h
Calls of active or inactive are those of the source. Cut-off read from the data, not from the text of the source: active = GI50 up to about 1.1 µM and inactive = higher.
Recorded measurements of GI50, one per entry
OBSERVATION TYPE: GI50

{"columns": ["COMPOUND", "DATA VALUE"],
 "data": [
  ["O=C(O)OC12CCCCCC1C(=O)C1CCCCC12 (stereo unspecified)", "> 100 µM (inactive)"],
  ["CC(C)CCn1c(=O)c2c(=O)[nH][nH]c2c2ccccc21", "> 100 µM (inactive)"],
  ["NNC(=O)CCSc1ccccc1", "> 100 µM (inactive)"],
  ["C/C=C(/C)C(=O)O[C@@H]1CCN2CC[C@H](COC(=O)/C(=C/C)CO)C12 (stereo partly specified)", "> 89.1 µM (inactive)"],
  ["C#CC(=O)OCC#CCOC(=O)C#C", "> 100 µM (inactive)"],
  ["CO/C(=N\\N=C\\c1ccc(Cl)cc1Cl)c1ccncc1", "> 10 µM (inactive)"]
]}

* * *

- Tested on: HOP-62
- ASSAY SUMMARY: NCI tumour cell line growth inhibition, 48 h
Activity calls are given as the source filed them. Cut-off read from the data, not from the text of the source: active = GI50 up to about 1.1 µM and inactive = higher. *1 amine or outer side, *2 acyl side, *3 side chain or, on linkers, in order; H or OH if unused. Where a SMILES comes first, the peptide text is derived from it. Bridges are numbered along the chain shown (N, C = ends). [ ]: non-standard residue; d: D form. X36 = CC[C@H](C)[C@@H](N[*:1])[C@@H](O)CC(=O)O[C@H](C(=O)[C@H](C)C(=O)[*:2])C(C)C; NMeY = CN[C@@H](Cc1ccc(O)cc1)C(=O)O
Outcome codes: Yes for active, No for inactive

{"columns": ["MOLECULE", "CLASS NAME"],
 "data": [
  ["CCSc1[nH]c(Nc2nc(-c3ccccc3)n(-c3ccccc3)n2)c(C(N)=O)c1C(N)=O", "No"],
  ["Cc1cc(Cl)ccc1N1C(=O)C(=O)C(c2nc3ccccc3s2)/C(=N\\NC(=O)c2ccccc2O)C1=O (stereo not given)", "No"],
  ["CC[C@H](C)[C@H]1NC(=O)[C@@H](N)[C@@H](C)OC(=O)[C@H](Cc2ccc(OC)cc2)N(C)C(=O)[C@@H]2CCCN2C(=O)[C@H](CC(C)C)NC(=O)[C@@H](C)C(=O)[C@H](C(C)C)OC(=O)C[C@@H]1O (H-T[X36]LP[NMeY](Me); ester 1-C)", "No"],
  ["O=C(CCN1CCCCC1CO)Nc1ccc2c(c1)C(=O)c1ccc(NC(=O)CCN3CCCCC3CO)cc1C2=O (stereo not given)", "No"],
  ["c1cc(C[S+]2CCCC2)oc1C[S+]1CCCC1", "No"],
  ["O=C(CCN1CCCC1)CC(c1ccccc1)c1c(O)c2ccccc2oc1=O (stereo not given)", "No"],
  ["CO[C@H]1[C@@H](O)[C@@H](O)O[C@@H](O[C@H]2CC[C@@]3(C)[C@H](CC[C@@H]4[C@@H]3[C@H](O)C[C@]3(C)[C@@H](C5=CC(=O)OC5)CC[C@]43O)C2)[C@@H]1O", "Yes"],
  ["O=C1/C(=C/c2c(Cl)[nH]c3ccccc23)c2ccccc2N1c1ccccc1", "No"],
  ["COC(=O)[C@H]1[C@H](OC(=O)[C@@H](OC)c2ccccc2)ON2CC[C@@H](OC(=O)c3ccccc3)[C@H]12", "No"],
  ["COC(=O)C(=O)C(CC(=O)Nc1cccc(C(F)(F)F)c1)C(=O)OC (stereo not given)", "No"],
  ["Cn1c2ccccc2c(=S)c2ccccc21", "No"],
  ["CCCCCc1cc(OC(=O)c2c(O)cc(OC)cc2CCCCC)cc(O)c1C(=O)O", "No"],
  ["C1CN(c2nnc(N3CCC3)nn2)C1", "No"],
  ["C=C(c1ccc2[nH]c(NC(=O)OC)nc2c1)c1cccs1", "Yes"],
  ["Cc1ccccc1/C=N/C12CC3CC(CC(C3)C1)C2", "No"],
  ["CC(=O)Nc1ccc2oc(=O)c3ccccc3c2c1", "No"],
  ["[O-][n+]1onc2c3nn(-c4ccccc4)nc3ccc21", "No"],
  ["CSC(=S)c1ccc(C(=S)SC)cc1", "No"],
  ["COc1cc2c(oc(=O)c3cc4cc([Si](C)(C)C)oc4c(OC)c32)c2cccc(O)c12", "No"],
  ["O=C(O)CN1C(=O)c2ccc(NC(=O)C(=O)O)cc2S1(=O)=O", "No"]
]}
